Taken from patent US8008506B2.

- tgt: human α1A adrenergic receptor (Homo sapiens)
- Construct: expressed in transfected cells; host or cells: HEK293 cells, pcDNA3.1(−), hygromycin B selection
- method notes: Test Example 4: human α1A adrenergic receptor agonist activity (Ca flux, Fura-2, transfected HEK293 cells)
- Type: cell-based
- study conditions: HEK293; read-out: α1A receptor I.A.
measurement label: Emax (%)

Please review the following examples before continuing.
INSERT INTO results (compound, measurement_label, observed_measurement) VALUES
  ('CN(C)C(=O)CCc1n[nH]c2cc(OCCNC[C@H](O)c3cccc(NS(C)(=O)=O)c3)ccc12 [Example 5]', 'Emax', 47),
  ('CCc1n[nH]c2cc(OCCNC[C@H](O)c3cccc(NS(=O)(=O)c4ccccc4)c3)ccc12 [Example 15]', 'Emax', 0),
  ('CCc1n[nH]c2cc(OCCNC[C@H](O)c3cccc(NS(C)(=O)=O)c3)ccc12 [Example 2]', 'Emax', 24),
  ('COCc1n[nH]c2cc(OCCNC[C@H](O)c3cccc(NS(C)(=O)=O)c3)ccc12 [Example 6]', 'Emax', 20);

P: CS(=O)(=O)Nc1cc([C@@H](O)CNCCOc2ccc3c(C(F)(F)F)n[nH]c3c2)ccc1F [Example 10]
Q: Cc1n[nH]c2cc(OCCNC[C@H](O)c3cccc(NS(=O)(=O)c4ccccc4)c3)ccc12 [Example 14]
R: CS(=O)(=O)Nc1cccc([C@@H](O)CNCCOc2ccc3c(C(F)(F)F)n[nH]c3c2)c1 [Example 4]
S: CC(C)c1n[nH]c2cc(OCCNC[C@H](O)c3cccc(NS(C)(=O)=O)c3)ccc12 [Example 1]
Q. Hello, I need these entries ordered by Emax, highest reading first. Thanks! Return the labels ranked in the requested order, please.
A. R, P, S, Q

====

- method notes: Test Example 12: solubility in physiological saline
- Assay type: physicochemical
- study conditions: saline or isotonic, thermodynamic from solid, 37° C., one hour, 1 mg/mL nominal
measurement label: solubility at 1 h (µg/mL)

INSERT INTO assay_data (mol, measurement_label, observed_measurement) VALUES
  ('CS(=O)(=O)Nc1cccc([C@@H](O)CNCCOc2ccc3c(C(F)(F)F)n[nH]c3c2)c1', 'solubility at 1 h', 932),
  ('COCc1n[nH]c2cc(OCCNC[C@H](O)c3cccc(NS(C)(=O)=O)c3)ccc12', 'solubility at 1 h', 993);

====

- tgt: human α1A adrenergic receptor (Homo sapiens, UniProt P35348)
- Construct: expressed in transfected cells; host or cells: HEK293 cells, pcDNA3.1(−), hygromycin B selection
- Sequence (P35348 whole entry): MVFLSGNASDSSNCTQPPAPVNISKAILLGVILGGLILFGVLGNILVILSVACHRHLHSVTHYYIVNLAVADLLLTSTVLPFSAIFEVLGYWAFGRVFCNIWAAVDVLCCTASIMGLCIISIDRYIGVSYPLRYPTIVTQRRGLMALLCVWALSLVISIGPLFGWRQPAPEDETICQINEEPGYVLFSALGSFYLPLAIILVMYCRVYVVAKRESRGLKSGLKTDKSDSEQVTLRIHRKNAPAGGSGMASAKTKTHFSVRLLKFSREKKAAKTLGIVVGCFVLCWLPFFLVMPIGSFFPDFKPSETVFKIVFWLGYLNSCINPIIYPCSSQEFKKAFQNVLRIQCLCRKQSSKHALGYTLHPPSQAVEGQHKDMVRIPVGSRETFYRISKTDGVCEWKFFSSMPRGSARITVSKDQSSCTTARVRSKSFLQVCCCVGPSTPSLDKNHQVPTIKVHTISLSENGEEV
- method notes: Test Example 4: human α1A adrenergic receptor agonist activity (Ca flux, Fura-2, transfected HEK293 cells)
- Assay type: cell-based
- study conditions: read-out: α1A receptor EC50; Table 2; Test Example 4
measurement label: pEC50
API: returns pEC50 as number; meaning -log10 of concentration in mol/L.

Q. Name the recorded pEC50 of the item CCc1n[nH]c2cc(OCCNC[C@H](O)c3cccc(NS(C)(=O)=O)c3)ccc12 in your answer.
A. 6.07

====

solubility at 1 h values for the compounds below.
- method notes: Test Example 11: solubility in hydrochloric acid buffer solution at pH 1.2
- Type: physicochemical
- study conditions: simulated gastric fluid, thermodynamic from solid; hydrochloric acid buffer solution at pH 1.2, 37° C., one hour, 1 mg/mL nominal

Some entries whose results are on file:
INSERT INTO assay_data (mol, observed_measurement) VALUES
  ('CS(=O)(=O)Nc1cccc([C@@H](O)CNCCOc2ccc3c(C(F)(F)F)n[nH]c3c2)c1', '963 µg/mL'),
  ('CC(C)c1n[nH]c2cc(OCCNC[C@H](O)c3cccc(NS(C)(=O)=O)c3)ccc12', '≥ 1000 µg/mL'),
  ('COCc1n[nH]c2cc(OCCNC[C@H](O)c3cccc(NS(C)(=O)=O)c3)ccc12', '≥ 1000 µg/mL'),
  ('CCc1n[nH]c2cc(OCCNC[C@H](O)c3cccc(NS(C)(=O)=O)c3)ccc12', '≥ 1000 µg/mL');

Then there is this compound:
Q. For the compound CN(C)C(=O)CCc1n[nH]c2cc(OCCNC[C@H](O)c3cccc(NS(C)(=O)=O)c3)ccc12 , give its measured solubility at 1 h value.
A. ≥ 1000 µg/mL

====

- tgt: human β1 adrenergic receptor (Homo sapiens, UniProt P08588)
- Construct: expressed in transfected cells; host or cells: CHO (Chinese Hamster Ovary) cells, pcDNA3
- Sequence (P08588 whole entry): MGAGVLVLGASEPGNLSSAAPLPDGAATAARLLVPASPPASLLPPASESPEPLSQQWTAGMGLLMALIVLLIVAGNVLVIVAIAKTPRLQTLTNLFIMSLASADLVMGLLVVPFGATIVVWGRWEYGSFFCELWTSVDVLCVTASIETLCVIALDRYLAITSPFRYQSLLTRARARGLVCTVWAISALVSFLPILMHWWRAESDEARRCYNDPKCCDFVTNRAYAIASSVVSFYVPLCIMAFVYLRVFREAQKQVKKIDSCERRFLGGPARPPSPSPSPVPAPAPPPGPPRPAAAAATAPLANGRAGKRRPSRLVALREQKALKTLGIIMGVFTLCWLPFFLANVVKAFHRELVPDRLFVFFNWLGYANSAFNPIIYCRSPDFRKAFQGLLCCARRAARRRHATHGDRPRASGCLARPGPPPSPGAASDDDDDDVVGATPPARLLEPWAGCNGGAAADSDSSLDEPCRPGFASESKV
- method notes: Test Example 2-B: human β1 adrenergic receptor agonist activity (method of Test Example 1-B)
- Assay type: cell-based
- study conditions: read-out: β1 receptor I.A.
measurement label: Emax (%)

Solved cases (5 shown):
INSERT INTO measurements (mol, tgt, observed_measurement) VALUES
  ('CC(C)c1n[nH]c2cc(OCCNC[C@H](O)c3cccc(NS(C)(=O)=O)c3)ccc12', 'human β1 adrenergic receptor (Homo sapiens, UniProt P08588)', 12),
  ('CCc1n[nH]c2cc(OCCNC[C@H](O)c3cccc(NS(=O)(=O)C(C)C)c3)ccc12', 'human β1 adrenergic receptor (Homo sapiens, UniProt P08588)', -2),
  ('Cc1n[nH]c2cc(OCCNC[C@H](O)c3cccc(NS(=O)(=O)c4ccccc4)c3)ccc12', 'human β1 adrenergic receptor (Homo sapiens, UniProt P08588)', 16),
  ('CS(=O)(=O)Nc1cc([C@@H](O)CNCCOc2ccc3c(C(F)(F)F)n[nH]c3c2)ccc1F', 'human β1 adrenergic receptor (Homo sapiens, UniProt P08588)', 8),
  ('CCc1n[nH]c2cc(OCCNC[C@H](O)c3cccc(NS(=O)(=O)CC)c3)ccc12', 'human β1 adrenergic receptor (Homo sapiens, UniProt P08588)', 3);

A: CS(=O)(=O)Nc1cc([C@@H](O)CNCCOc2ccc3c(C(F)(F)F)n[nH]c3c2)ccc1Cl
B: CCc1n[nH]c2cc(OCCNC[C@H](O)c3cccc(NS(=O)(=O)c4ccccc4)c3)ccc12
C: Cc1n[nH]c2cc(OCCNC[C@H](O)c3cccc(NS(=O)(=O)C(C)C)c3)ccc12
D: COc1n[nH]c2cc(OCCNC[C@H](O)c3cccc(NS(=O)(=O)c4ccccc4)c3)ccc12
E: CCc1n[nH]c2cc(OCCNC[C@H](O)c3ccc(F)c(NS(C)(=O)=O)c3)ccc12
Q. Reorder: Emax, max to min. Provide the labels, sequenced as the question asks.
A. A, E, D, B, C
(A: 22%, E: 15%, D: 7%, B: 1%, C: -1%)

a: CC(C)c1n[nH]c2cc(OCCNC[C@H](O)c3ccc(Cl)c(NS(C)(=O)=O)c3)ccc12
b: CCCc1n[nH]c2cc(OCCNC[C@H](O)c3cccc(NS(C)(=O)=O)c3)ccc12
Q. Sorting ascending by Emax, which comes first: a or b ? Mark your selection by writing its label.
A. b

1: CS(=O)(=O)Nc1cccc([C@@H](O)CNCCOc2ccc3c(C(F)(F)F)n[nH]c3c2)c1
2: CCc1n[nH]c2cc(OCCNC[C@H](O)c3ccc(Cl)c(NS(C)(=O)=O)c3)ccc12
Q. Given 1 and 2 , report the one with the higher recorded Emax. When you have decided, please share the label of that item.
A. 2

====

- tgt: human β3 adrenergic receptor (Homo sapiens)
- Construct: the full length human β3 gene is obtained from a human genomic library; expressed in transfected cells; host or cells: CHO (Chinese Hamster Ovary) cells, pcDNA3, geneticin selection
- Sequence (P13945 whole entry): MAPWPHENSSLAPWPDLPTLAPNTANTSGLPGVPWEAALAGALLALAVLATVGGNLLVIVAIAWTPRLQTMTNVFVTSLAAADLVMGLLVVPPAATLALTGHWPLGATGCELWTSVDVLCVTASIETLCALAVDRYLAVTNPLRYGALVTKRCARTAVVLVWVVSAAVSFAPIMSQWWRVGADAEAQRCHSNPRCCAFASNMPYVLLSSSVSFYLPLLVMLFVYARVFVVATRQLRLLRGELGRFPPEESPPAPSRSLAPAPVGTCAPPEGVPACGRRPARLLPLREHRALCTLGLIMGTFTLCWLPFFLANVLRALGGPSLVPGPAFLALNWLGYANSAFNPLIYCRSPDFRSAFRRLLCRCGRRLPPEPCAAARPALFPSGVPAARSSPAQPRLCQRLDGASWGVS
- method notes: Test Example 1-A: human β3 adrenergic receptor agonist activity (cAMP EIA, transfected CHO cells, 24-well)
- Type: cell-based
- study conditions: Table 1; maximum response to isoproterenol taken as 100%
measurement label: β3 receptor I.A. (%)

INSERT INTO assay_data (molecule, unit_string, observed_measurement) VALUES
  ('CCCc1n[nH]c2cc(OCCNC[C@H](O)c3cccc(NS(C)(=O)=O)c3)ccc12', '%', 77),
  ('COCc1n[nH]c2cc(OCCNC[C@H](O)c3cccc(NS(C)(=O)=O)c3)ccc12', '%', 82),
  ('CC(C)NCC(O)c1ccc(O)c(O)c1 (centres unmarked) [Isoproterenol, reference compound]', '%', 100),
  ('CN(C)C(=O)CCc1n[nH]c2cc(OCCNC[C@H](O)c3cccc(NS(C)(=O)=O)c3)ccc12', '%', 75),
  ('CCc1n[nH]c2cc(OCCNC[C@H](O)c3cccc(NS(C)(=O)=O)c3)ccc12', '%', 77);

====

- tgt: human β2 adrenergic receptor (Homo sapiens, UniProt P07550)
- Construct: expressed in transfected cells; host or cells: CHO (Chinese Hamster Ovary) cells, pcDNA3
- Sequence (P07550 whole entry): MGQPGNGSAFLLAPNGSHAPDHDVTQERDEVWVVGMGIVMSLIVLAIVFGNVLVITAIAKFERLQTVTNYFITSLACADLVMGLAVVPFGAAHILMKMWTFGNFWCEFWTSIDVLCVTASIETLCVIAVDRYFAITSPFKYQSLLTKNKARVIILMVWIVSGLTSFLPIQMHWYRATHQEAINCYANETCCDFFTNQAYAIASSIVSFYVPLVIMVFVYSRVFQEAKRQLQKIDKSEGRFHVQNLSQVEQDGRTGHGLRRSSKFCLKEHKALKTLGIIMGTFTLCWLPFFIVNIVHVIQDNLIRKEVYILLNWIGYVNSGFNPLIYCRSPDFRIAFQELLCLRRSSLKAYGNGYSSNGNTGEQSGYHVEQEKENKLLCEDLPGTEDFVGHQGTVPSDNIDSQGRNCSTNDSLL
- method notes: Test Example 3-B: human β2 adrenergic receptor agonist activity (method of Test Example 1-B)
- Type: cell-based
- study conditions: read-out: β2 receptor I.A.
measurement label: Emax (%)

Illustrative cases are given below, each with its answer.
INSERT INTO results (mol, observed_measurement) VALUES
  ('CCc1n[nH]c2cc(OCCNC[C@H](O)c3ccc(F)c(NS(C)(=O)=O)c3)ccc12', 11),
  ('CCc1n[nH]c2cc(OCCNC[C@H](O)c3cccc(NS(=O)(=O)C(C)C)c3)ccc12', -3),
  ('CS(=O)(=O)Nc1cccc([C@@H](O)CNCCOc2ccc3c(C(F)(F)F)n[nH]c3c2)c1', 2.4),
  ('Cc1n[nH]c2cc(OCCNC[C@H](O)c3cccc(NS(=O)(=O)C(C)C)c3)ccc12', 2),
  ('COc1n[nH]c2cc(OCCNC[C@H](O)c3cccc(NS(=O)(=O)c4ccccc4)c3)ccc12', 3),
  ('CC(C)c1n[nH]c2cc(OCCNC[C@H](O)c3cccc(NS(C)(=O)=O)c3)ccc12', 6.7),
  ('CCc1n[nH]c2cc(OCCNC[C@H](O)c3cccc(NS(=O)(=O)CC)c3)ccc12', 5),
  ('CCCc1n[nH]c2cc(OCCNC[C@H](O)c3cccc(NS(C)(=O)=O)c3)ccc12', 2),
  ('CN(C)C(=O)CCc1n[nH]c2cc(OCCNC[C@H](O)c3cccc(NS(C)(=O)=O)c3)ccc12', 5.4),
  ('CC(C)c1n[nH]c2cc(OCCNC[C@H](O)c3ccc(Cl)c(NS(C)(=O)=O)c3)ccc12', 8);

P: CCc1n[nH]c2cc(OCCNC[C@H](O)c3ccc(Cl)c(NS(C)(=O)=O)c3)ccc12
Q: Cc1n[nH]c2cc(OCCNC[C@H](O)c3cccc(NS(=O)(=O)c4ccccc4)c3)ccc12
Q. Response body: label of entry with the larger Emax; valid values P , Q . Respond using the label that marks the chosen record.
A. P

I: CCc1n[nH]c2cc(OCCNC[C@H](O)c3cccc(NS(=O)(=O)c4ccccc4)c3)ccc12
II: CS(=O)(=O)Nc1cc([C@@H](O)CNCCOc2ccc3c(C(F)(F)F)n[nH]c3c2)ccc1F
Q. Select the item with the higher value of Emax from the options I and II listed. State your choice using its label.
A. II
